Target: T1, Human EphA4-Fc fusion protein (human, UniProt P54764 20-547)
T1 construct: not shown: Fc portion of a human IgG1
T1 sequence (P54764 20-547): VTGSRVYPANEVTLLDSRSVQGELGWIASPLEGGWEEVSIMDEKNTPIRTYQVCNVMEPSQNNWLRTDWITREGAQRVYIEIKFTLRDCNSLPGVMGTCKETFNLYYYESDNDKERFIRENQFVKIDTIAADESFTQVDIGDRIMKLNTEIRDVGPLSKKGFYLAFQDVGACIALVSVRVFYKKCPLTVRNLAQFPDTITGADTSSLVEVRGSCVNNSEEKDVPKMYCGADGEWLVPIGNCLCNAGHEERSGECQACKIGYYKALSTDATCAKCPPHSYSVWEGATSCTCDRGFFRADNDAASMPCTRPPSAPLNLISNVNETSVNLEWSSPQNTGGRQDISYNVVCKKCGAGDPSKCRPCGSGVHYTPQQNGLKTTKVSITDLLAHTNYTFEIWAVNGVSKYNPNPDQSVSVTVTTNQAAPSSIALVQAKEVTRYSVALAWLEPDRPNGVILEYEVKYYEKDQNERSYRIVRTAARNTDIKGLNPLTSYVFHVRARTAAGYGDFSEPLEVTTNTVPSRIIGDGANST
Assay: BIAcore, IgG immobilized on the sensor chip, EphA4-Fc as analyte
measure_name: koff (s⁻¹)
Numeric answer only, unit s⁻¹ assumed.

Record excerpt, results attached:
{"columns": ["binder", "reading_unit", "koff"],
 "data": [
  ["2C9 IgG1 (affinity optimized combinatorial variant of mAb GEA44 in human IgG1 format) (antibody, V domains shown) VH: QVQLLQSGAEVKKPGASVKVPCKASGYTFTSRAMSWVRQAPGQGLEWMGWINTNTGNPTYAQGFTGRFVFSLDTSVSTAYLQISSLKAEDTAVYYCARVRFTVYGDGMDVWGQGTLVTVSS VL: EIVLTQSPATLSVSPGERATLSCRASQSVSSNLAWYQQKPGQAPRLLIYGASTRPTGIPDRFSASGSGTDFTLTISRVEPEDFAVYYCQQYGPSWTFGQGTKVEIK", "s⁻¹", "1.91e-05"],
  ["8B4 IgG1 (affinity optimized combinatorial variant of mAb GEA44 in human IgG1 format) (antibody, V domains shown) VH: QVQLLQSGAEVKKPGASVKVPCKASGYTFTSRAMSWVRQAPGQGLEWMGWINTNTGNPTYAQGFTGRFVFSLDTSVSTAYLQISSLKAEDTAVYYCARVRLTVYGDGMDVWGQGTLVTVSS VL: EIVLTQSPATLSVSPGERATLSCRASQSVSSNPAWYQQKPGQAPRLLIYGLSTRATGIPDRFSASGSGTDFTLTISRVEPEDFAVYYCQQYGPSWTFGQGTKVEIK", "s⁻¹", "2.2e-05"],
  ["1G11 IgG1 (affinity optimized combinatorial variant of mAb GEA44 in human IgG1 format) (antibody, V domains shown) VH: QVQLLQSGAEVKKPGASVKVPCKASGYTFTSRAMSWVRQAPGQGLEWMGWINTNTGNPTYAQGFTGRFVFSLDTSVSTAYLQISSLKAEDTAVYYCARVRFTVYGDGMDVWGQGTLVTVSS VL: EIVLTQSPATLSVSPGERATLSCRASQSVSSNLPWYQQKPGQAPRLLIYGASTRPTGIPDRFSASGSGTDFTLTISRVEPEDFAVYYCQQYGPSWTFGQGTKVEIK", "s⁻¹", "1.01e-05"],
  ["1D11 IgG1 (affinity optimized combinatorial variant of mAb GEA44 in human IgG1 format) (antibody, V domains shown) VH: QVQLLQSGAEVKKPGASVKVPCKASGYTFTSRAMSWVRQAPGQGLEWMGWINTNTGNPTYAQGFTGRFVFSLDTSVSTAYLQISSLKAEDTAVYYCARVRTTVYGDNMDVWGQGTLVTVSS VL: EIVLTQSPATLSVSPGERATLSCRASQSVSSNLPWYQQKPGQAPRLLIYGASTRATGIPDRFSASGSGTDFTLTISRVEPEDFAVYYCQQYGPSWTFGQGTKVEIK", "s⁻¹", "6.15e-05"]
]}

Here is the next item to consider.
Input: Data request, read-out koff, for 1A4 IgG1 (affinity optimized combinatorial variant of mAb GEA44 in human IgG1 format) (antibody, V domains shown) VH: QVQLLQSGAEVKKPGASVKVPCKASGYTFTSRAMSWVRQAPGQGLEWMGWINTNTGNPTYAQGSTGRFVFSLDTSVSTAYLQISSLKAEDTAVYYCARVRFTVYGDGMDVWGQGTLVTVSS VL: EIVLTQSPATLSVSPGERATLSCRASQSVSSNPAWYQQKPGQAPRLLIYGASTRATGIPDRFSASGSGTDFTLTISRVEPEDFAVYYCQQYGPSWTFGQGTKVEIK
Output: 2.87e-05
